MEASURED_ON: IRAK4 (Homo sapiens (Human), UniProt Q9NWZ3)
Sequence (Q9NWZ3 whole entry, species assumed): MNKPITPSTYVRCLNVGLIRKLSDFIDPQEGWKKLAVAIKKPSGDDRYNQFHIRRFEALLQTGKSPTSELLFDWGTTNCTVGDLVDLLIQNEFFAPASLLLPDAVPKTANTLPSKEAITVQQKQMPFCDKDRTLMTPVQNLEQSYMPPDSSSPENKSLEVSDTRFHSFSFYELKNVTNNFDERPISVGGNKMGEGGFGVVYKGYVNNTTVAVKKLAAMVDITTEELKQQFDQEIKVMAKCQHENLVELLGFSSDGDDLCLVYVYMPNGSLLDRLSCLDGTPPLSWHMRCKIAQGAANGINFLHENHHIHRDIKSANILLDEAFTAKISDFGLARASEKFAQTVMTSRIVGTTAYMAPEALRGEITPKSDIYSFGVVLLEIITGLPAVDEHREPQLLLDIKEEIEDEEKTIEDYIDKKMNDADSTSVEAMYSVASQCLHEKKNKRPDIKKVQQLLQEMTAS
OBSERVABLE: IC50 (nM)

INSERT INTO results (compound, readout_unit, test_result) VALUES
  ('CC(C)Nc1cc(Nc2ccc3ncsc3c2)ncc1C(=O)NC[C@@H](F)CO', 'nM', 9.6),
  ('CC(C)(O)[C@H](F)CNC(=O)c1cnc(Nc2ccc3ncsc3c2)cc1Nc1ncc(CO)s1', 'nM', 1.8),
  ('CC(C)(O)[C@H](F)CNC(=O)c1cnc(Nc2ncc3ncccc3n2)cc1NC1CCOCC1', 'nM', 6),
  ('CC(C)(O)[C@H](F)CNC(=O)c1cnc(Nc2ncc3ncccc3n2)cc1N[C@@H]1CCC[C@@H]1F', 'nM', 10.6),
  ('CC(C)(O)[C@H](F)CNC(=O)c1cnc(Nc2nc3ccnn3cc2F)cc1NC1CC1', 'nM', 5.3);

P: CC(C)Nc1cc(Nc2ccn3nccc3c2)ncc1C(=O)NC[C@@H](F)C(C)(C)O
Q: CC(C)(O)[C@H](F)CNC(=O)c1cnc(Nc2ccc3ncsc3c2)cc1N[C@H](CO)c1ccccc1
R: CC(C)(O)[C@H](F)CNC(=O)c1cnc(Nc2ccc3ncc(C(N)=O)cc3n2)cc1NC1CCC1
S: CC(C)Nc1cc(Nc2nc3scnc3cc2F)ncc1C(=O)NC[C@@H](F)C(C)(C)O
T: CNC(=O)c1cnc(Nc2ccc3ncsc3c2)cc1NC1C2CC3CC1CC(O)(C3)C2 (single isomer, unassigned) [Example 148]
Asked: rank_up(items): orders items by reported IC50 in ascending numerical order. Answer by listing the labels in the order asked for.
Given back: S, R, P, Q, T

P: CC(C)(O)[C@H](F)CNC(=O)c1cnc(Nc2ccc3ncsc3c2)cc1NC1CCCC1
Q: CCNc1cc(Nc2nc3ccnn3cc2F)ncc1C(=O)NC1CCC(C(C)(C)O)CC1 (stereo not shown)
R: CC(C)Nc1cc(Nc2ccc3ncsc3c2)ncc1C(=O)NCCc1ccc(C(N)=O)cc1
Asked: Order the records by IC50, with each subsequent value no larger than the one before. Labels, requested order.
Given back: Q, R, P
(Q: 12.1 nM, R: 7.8 nM, P: 3.7 nM)

a: CC(C)Nc1cc(Nc2ccc3ncoc3c2)ncc1C(=O)NC[C@@H](F)C(C)(C)O
b: CC(C)(O)[C@H](F)CNC(=O)c1cnc(Nc2cc3scnc3cn2)cc1NC1CC1
Asked: Pick one: a or b . Which has the bigger IC50 number? Choose, then provide that item's label.
Given back: b
(b: 3.9 nM, a: 2.6 nM)

* * *

System: TLR2 induced IL-6 in peripheral blood mononuclear cells (PBMCs)
EXPERIMENT_NOTES: PBMC TLR2 Induced IL-6 Assay
Format: cell-based, human
RECORDED_CONDITIONS: Homo sapiens, PBMC, 5 h, human PBMCs, 10 μg/ml lipoteichoic acid for 5 hours, IL-6 by ELISA; EC50 determinations are indicated with an asterisk; read-out: Cell EC50 (asterisk)
Protocol: Peripheral blood mononuclear cells (PBMCs) were isolated from human blood containing the anti-coagulant EDTA (2.5 mM) by centrifugation over a FICOLL® gradient. PBMCs (250000 cells/well) were cultured in assay media (RPMI with 10% heat inactivated FCS) with compounds for 30 minutes at 37° C. in a 5% CO2 incubator. […] Supernatants were harvested and analyzed for IL-6 levels by ELISA (BD Biosciences, San Jose, Calif.). Inhibition was calculated as either an IC50 or EC50. […]
OBSERVABLE: pEC50
Quick note: pEC50 values are minus log10 of concentrations in mol/L.

These recorded examples may help you get a feel for the data.
INSERT INTO measurements (compound, test_result) VALUES
  ('CC(C)Nc1cc(Nc2ccc3ncsc3c2)ncc1C(=O)NC1CCc2nnnn2CC1 (stereo not shown) [Example 527]', 6.49),
  ('CC(CCF)Nc1cc(Nc2nc3ccnn3cc2F)ncc1C(=O)NC[C@@H](F)C(C)(C)O (stereo partly shown) [Example 502]', 6.84),
  ('CC(C)Nc1cc(Nc2ccc3ncsc3c2)ncc1C(=O)NC1CCC(=O)CC1 [Example 526]', 6.37),
  ('CC(C)Nc1cc(Nc2ccc3ncsc3c2)ncc1C(=O)NC1CCC2(CC1)NC(=O)NC2=O (stereo not shown) [Example 525]', 6.88),
  ('CNC(=O)[C@H]1CC[C@H](NC(=O)c2cnc(Nc3ccc4ncsc4n3)cc2NC2CCOCC2)CC1 [Example 510]', 7.55);

# next compound below
Asked: Look up pEC50 for this compound: CC(C)Nc1cc(Nc2nc3cccnc3cc2F)ncc1C(=O)NC[C@@H](F)C(C)(C)O [Example 499]
Given back: 7.14
